Answer each item with its documented pKd.
- Tested system: T1, KIX domain of CBP coactivator (region 586-672) (UniProt P45481 586-672)
- T1 construct: GST-His6x tag removed by TEV protease; also called KIX protein; source: expressed as GST-His6x-TEV-KIX from pGEX-2T, purified (His trap Ni column, TEV cleavage, second His trap, HiLoad S30); not shown: GST, N-terminal, cleaved; His6, N-terminal, cleaved
- T1 sequence (P45481 other isoform, or with tags, fused parts or gaps): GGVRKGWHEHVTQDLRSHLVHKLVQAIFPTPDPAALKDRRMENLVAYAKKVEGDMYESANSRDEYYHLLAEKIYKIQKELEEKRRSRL
- Assay name: BLI; biotinylated peptide immobilised on streptavidin SA biosensors (Octet RED96e); KIX domain in solution at 0.31, 0.63, 1.25, 2.5 and 5.0 uM; 30 C, 1000 rpm; 20 mM sodium phosphate pH 6.0, 50 mM NaCl; blank-subtracted, 1:1 model, steady-state analysis; apparent KD, average of pentaplicate
- Details: both partners purified
No end group written: not given here. *: point of attachment. Biotin = O=C1N[C@H]2[C@H](CS[C@H]2CCCCC(=O)*)N1
One number for each entry, as −log10 of the molar value.

Here are 2 binders together with their reported answers.
INSERT INTO results (binder, experimental_endpoint, reported) VALUES
  ('Biotin-GSNILPSDIMDFVLKNT (linker between biotin and the MLL stretch; MLL stretch with its 9aaTAD; Positive control of the BLI assay; also called MLL peptide; source: synthetic peptide (Apeptide Shanghai Chutide Biotechnology), 95% purity) [MLL 9aaTAD peptide (Biotin-GS-NILPSDIMDFVLKNT)]', 'pKd', 5.93),
  ('Biotin-GSSSEPPSWVTEMLLEN (linker between biotin and the N-Myc stretch; human N-Myc stretch with its 9aaTAD; also called N-Myc peptide; NMY peptide; source: synthetic peptide (Apeptide Shanghai Chutide Biotechnology), 95% purity) [N-Myc 9aaTAD peptide (Biotin-GSSS-EPPSWVTEMLLEN)]', 'pKd', 6.06);

Could you now look at the following binder, please?
Task: Entry under review: Biotin-GSSSTQLEMVTELLG (linker between biotin and the c-Myc stretch; it may belong to the linker; also called c-Myc peptide; MYC peptide; source: synthetic peptide (Apeptide Shanghai Chutide Biotechnology), 95% purity) [c-Myc 9aaTAD peptide (Biotin-GSSS-TQLEMVTELLG)] . Reported pKd?
Output: 5.67
